Target: PvCHI (chalcone isomerase) (Panicum virgatum, UniProt A0A8T0N7A2)
Construct: gene PVAP13_9KG390224; recombinant, N-terminal 6×-His tag
Sequence (A0A8T0N7A2 1-235): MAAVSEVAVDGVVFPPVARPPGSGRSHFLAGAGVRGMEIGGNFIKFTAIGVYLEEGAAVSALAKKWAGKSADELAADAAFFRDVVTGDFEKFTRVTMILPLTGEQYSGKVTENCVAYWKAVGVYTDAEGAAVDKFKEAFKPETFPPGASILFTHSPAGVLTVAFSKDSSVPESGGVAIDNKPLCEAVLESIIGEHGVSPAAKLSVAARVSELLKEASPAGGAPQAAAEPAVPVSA
Assay: steady-state kinetics at […] nm; substrate inhibition (Km […], KI […])
Assay type: biochemical
Measure Name: pKi
Give bare numbers, as −log10 of the molar value.

q: Find pKi (PvCHI (chalcone isomerase) (Panicum virgatum, UniProt A0A8T0N7A2)) for the entry `O=C(/C=C/c1ccc(O)cc1)c1ccc(O)cc1O`
a: 4.95
